assay: A CellTox Green Cytotoxicity Assay to monitor cytotoxicity in HepG2 cells - 24 hour (AID 1224878); settings: CellTox Green fluorescence; series mostly up to 76.8 µM; further: nearly all actives have a fitted effect of over 45% in size
Inconclusive results are not listed. Activity calls are given as the source filed them. The call rests on the fitted dose curve; in most records, active means well fitted activation curve with a large enough effect in the repeat runs; inconclusive means weak or mixed curves; inactive means flat fitted curve, though single readings scatter.
OBSERVATION TYPE: outcome

Guide cases for outcome, answers given:
INSERT INTO assay_data (molecule, observed_measurement) VALUES
  ('CCN(CC)c1ccc(C(=C2C=CC(=[N+](CC)CC)C=C2)c2ccc(S(=O)(=O)O)cc2S(=O)(=O)[O-])cc1', 'inactive'),
  ('COc1ccc(C(=O)NCc2ccc(OCCN(C)C)cc2)cc1OC', 'inactive'),
  ('COC(=O)Nc1nc2ccc(C(=O)C3CC3)cc2[nH]1', 'inactive'),
  ('CCCCCC', 'inactive'),
  ('c1ccc(CNc2ncnc3c2ncn3C2CCCCO2)cc1 (configuration not stated)', 'inactive'),
  ('CC12CC3CC(C)(C1)CC(N)(C3)C2', 'inactive'),
  ('O=C(C(=O)c1ccco1)c1ccco1', 'inactive'),
  ('COc1ccc(C2C(=O)c3ccccc3C2=O)cc1', 'inactive'),
  ('Cc1c(C2(c3cc(Br)c(O)c(Br)c3C)OS(=O)(=O)c3ccccc32)cc(Br)c(O)c1Br', 'inactive'),
  ('O=C1NC(=O)c2cccc3cccc1c23', 'inactive');

# get_value(readout='outcome', item= N[C@@H](Cc1cc(I)c(O)c(I)c1)C(=O)O ) inactive

# lookup: outcome of Cc1ccccc1S(N)(=O)=O inactive

* * *

test: A CellTox Green Cytotoxicity Assay to monitor cytotoxicity in HepG2 cells - 24 hour (AID 1224878); details: CellTox Green fluorescence; series mostly up to 76.8 µM; further: nearly all actives have a fitted effect of over 45% in size
Results filed as inconclusive are left out. Activity calls are given as the source filed them. The call rests on the fitted dose curve; in most records, active means well fitted activation curve with a large enough effect in the repeat runs; inconclusive means weak or mixed curves; inactive means flat fitted curve, though single readings scatter.
Pick from y for active, n for inactive when you respond.

INSERT INTO measurements (molecule, label_class) VALUES
  ('CN1CCCN(C(c2ccccc2)c2ccc(Cl)cc2)CC1 (stereo not given)', 'y'),
  ('CNC1CCCN(c2c(F)cc3c(=O)c(C(=O)O)cn(C4CC4)c3c2OC)C1 (stereo not given)', 'n'),
  ('C=CC(=O)NC(C)C', 'n'),
  ('CC(C)COC(=O)COc1cc(Cl)c(Cl)cc1Cl', 'n');

Dear colleague, could you share the recorded outcome for CCC(C)(C)C(=O)O when you have a moment? n

What was the test verdict on COC(C)(C)OC ? n

Just curious, what result did COC(CC(C)CCCC(C)(C)O)OC (stereo not given) get here? n

So what was the verdict on CC(=O)Oc1cccc(O)c1 in this test? n

Hi, sorry to bother you, what did the test record for CCCCCCC(CO)CCCC (stereo not given) ? n

Returns: the outcome recorded for CCOC(=O)N1CCC(Nc2ccc(Cl)cc2N)CC1 in this assay. n

* * *

test: qHTS assay to identify small molecule agonists of H2AX - cell viability counter screen (AID 1224847); details: CHO-K1 viability, CellTiter-Glo luminescence, 3 h; series mostly up to 154 µM;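 further: wild-type CHO-K1 cells; top concentration of the series differs between compounds; nearly all actives have a fitted effect of over 30% in size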
Results filed as inconclusive are left out. Calls of active or inactive are those of the source. Calls follow the shape of the full dose curve.
A correct response names exactly one class from yes for active, no for inactive

Previously resolved entries follow.
INSERT INTO assay_data (molecule, label_class) VALUES
  ('C=C(C)c1ccccc1', 'no'),
  ('Cc1ccccc1S(N)(=O)=O', 'no');

Record lookup: outcome of this test for O=C(c1ccccc1)C1CCC1 ? no

Entry Cc1oc(=O)oc1COC(=O)[C@@H]1N2C(=O)[C@@H](NC(=O)[C@H](N)c3ccccc3)[C@H]2SC1(C)C : call = ? no

Recorded test call requested for CC(=O)OCC(=O)[C@@]1(OC(C)=O)[C@@H](C)C[C@H]2[C@@H]3C[C@H](F)C4=CC(=O)C=C[C@]4(C)[C@@]3(F)[C@@H](O)C[C@@]21C no

Hello, I am checking results. What call was entered for CC(C)N(C)C ? no

Which outcome was assigned to CCCCCCCC/C=C\CCCCCCCC(=O)OCCO in this test? no

Please let me know the test result on file for CC(=O)Oc1cccc(O)c1 . no

// provenance: PubChem BioAssay (Tox21)
